Molecular target: Delta-type opioid receptor (Mus musculus)
Sequence (P32300 whole entry): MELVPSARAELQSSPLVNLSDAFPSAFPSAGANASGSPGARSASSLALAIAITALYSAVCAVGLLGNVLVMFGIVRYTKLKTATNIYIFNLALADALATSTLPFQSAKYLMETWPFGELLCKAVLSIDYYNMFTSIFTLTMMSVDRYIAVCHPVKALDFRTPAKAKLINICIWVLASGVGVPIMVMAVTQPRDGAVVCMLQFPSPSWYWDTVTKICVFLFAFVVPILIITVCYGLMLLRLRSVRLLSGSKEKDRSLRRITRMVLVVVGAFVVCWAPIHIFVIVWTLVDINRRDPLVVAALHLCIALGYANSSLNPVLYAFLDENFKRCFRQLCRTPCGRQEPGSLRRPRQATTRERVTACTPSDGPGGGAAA
Assay: The compound was evaluated for the binding affinity towards delta-opioid receptor by displacement of [3H]p-CI-DPDPE radioligand from mouse vas deferens
METRIC_NAME: pKi
Keep it numeric: pKi is minus log10 of the concentration in mol/L.

Problem: // pKi lookup, key: NC(Cc1ccc(O)cc1)C(=O)N1Cc2ccccc2C[C@H]1C(=O)O (single isomer, unassigned)
Result: 6.72
